Sourced from patent US20210275641A1

Target: T1, human high affinity trimeric IL-2 receptor (CD25/CD122/CD132) (human, UniProt P01589 22-272; P14784 27-551; P31785 23-369)
T1 sequence 1: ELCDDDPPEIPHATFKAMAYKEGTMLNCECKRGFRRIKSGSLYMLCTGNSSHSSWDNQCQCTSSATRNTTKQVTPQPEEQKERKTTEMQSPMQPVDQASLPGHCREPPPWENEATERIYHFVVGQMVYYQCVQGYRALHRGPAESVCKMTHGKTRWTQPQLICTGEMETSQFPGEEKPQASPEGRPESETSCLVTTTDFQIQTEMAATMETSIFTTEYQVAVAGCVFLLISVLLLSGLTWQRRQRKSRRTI
T1 sequence 2: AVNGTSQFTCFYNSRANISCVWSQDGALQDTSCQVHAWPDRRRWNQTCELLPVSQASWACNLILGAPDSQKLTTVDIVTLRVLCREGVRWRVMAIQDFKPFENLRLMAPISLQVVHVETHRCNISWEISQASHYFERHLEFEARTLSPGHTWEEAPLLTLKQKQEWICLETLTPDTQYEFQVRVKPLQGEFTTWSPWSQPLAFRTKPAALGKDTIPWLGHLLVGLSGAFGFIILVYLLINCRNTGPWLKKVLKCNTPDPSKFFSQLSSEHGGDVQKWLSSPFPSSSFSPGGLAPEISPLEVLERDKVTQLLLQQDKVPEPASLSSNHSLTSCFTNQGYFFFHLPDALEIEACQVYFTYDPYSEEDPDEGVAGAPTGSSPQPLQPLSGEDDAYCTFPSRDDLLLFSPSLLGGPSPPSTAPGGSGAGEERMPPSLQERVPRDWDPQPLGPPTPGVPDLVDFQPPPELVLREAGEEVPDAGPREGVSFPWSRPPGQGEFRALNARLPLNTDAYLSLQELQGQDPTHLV
T1 sequence 3: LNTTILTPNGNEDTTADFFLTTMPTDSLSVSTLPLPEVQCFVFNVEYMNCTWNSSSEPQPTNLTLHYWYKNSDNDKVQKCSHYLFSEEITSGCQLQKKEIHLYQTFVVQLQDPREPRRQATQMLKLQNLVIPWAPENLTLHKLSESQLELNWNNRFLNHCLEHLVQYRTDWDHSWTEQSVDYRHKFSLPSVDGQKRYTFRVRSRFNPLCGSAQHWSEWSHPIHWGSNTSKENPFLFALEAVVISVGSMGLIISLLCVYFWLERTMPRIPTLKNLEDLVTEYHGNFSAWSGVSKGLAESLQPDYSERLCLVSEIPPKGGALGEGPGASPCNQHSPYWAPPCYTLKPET
Experiment: cell-based or functional assay
For each of the binders below, state its pSTAT5 ratio YT CD25/YT, dilution factor 128, lower table.
I'd appreciate a reply containing only the number, no unit.

query: Identify measured pSTAT5 ratio YT CD25/YT, dilution factor 128, lower table associated with RLH (ligand) cytokine: APTSSSTKKTQLQLEHLRLDLLMILNGINNYKNPKLTRMLTFKFYMPKKATELKHLQCLEEELKPLEEVLNLAQSKNFHLRPRDLISNINVIVLELKGSETTFMCEYADETATIVEFLNRWITFCHSIISTLT
result: 6.7

query: Report measured pSTAT5 ratio YT CD25/YT, dilution factor 128, lower table; entry is RSH (ligand) cytokine: APTSSSTKKTQLQLEHLRLDLSMILNGINNYKNPKLTRMLTFKFYMPKKATELKHLQCLEEELKPLEEVLNLAQSKNFHLRPRDLISNINVIVLELKGSETTFMCEYADETATIVEFLNRWITFCHSIISTLT
result: 6.8

query: For the binder RHH (ligand) cytokine: APTSSSTKKTQLQLEHLRLDLHMILNGINNYKNPKLTRMLTFKFYMPKKATELKHLQCLEEELKPLEEVLNLAQSKNFHLRPRDLISNINVIVLELKGSETTFMCEYADETATIVEFLNRWITFCHSIISTLT , report pSTAT5 ratio YT CD25/YT, dilution factor 128, lower table.
result: 16

query: // fetch pSTAT5 ratio YT CD25/YT, dilution factor 128, lower table given entry RGH (ligand) cytokine: APTSSSTKKTQLQLEHLRLDLGMILNGINNYKNPKLTRMLTFKFYMPKKATELKHLQCLEEELKPLEEVLNLAQSKNFHLRPRDLISNINVIVLELKGSETTFMCEYADETATIVEFLNRWITFCHSIISTLT
result: 6.9
